Assay: inhibition of NOD2-driven NF-kB reporter – cell-based, luminescence, uHTS, HEK293 (AID 1566)
Details: HEK293 NOD2/NF-kB luciferase reporter, at 4 µM, hits give high values
The whole screen tested about 290,000 compounds, of which about 1,800 (0.62%) were called active. What follows is part of a selection rich in actives, with near analogues and random picks from the rest.
List of inhibition values.

Illustrative cases are given below, each with its answer.
smiles_representation=CCC(=O)OCn1nnc2ccccc2c1=O val="7.6% (inactive)"
smiles_representation=Cc1cccnc1CCNC(=O)c1ccc(OC2CCN(Cc3ccccn3)CC2)cc1 val="2.1% (inactive)"
smiles_representation=O=C(N/N=C/c1ccco1)c1cccc(NC(=O)c2ccccc2Cl)c1 val="50.6% (active)"
smiles_representation=O=C(NCCc1ccccn1)c1ccc(OC2CCN(Cc3ccccn3)CC2)cc1 val="6.5% (inactive)"
smiles_representation=O=C(N/N=C/c1ccco1)c1cccc(NC(=O)c2cccc(Cl)c2)c1 val="12.2% (inactive)"

Switching to the query record.
Query string: Look up and report measured inhibition for this entry: O=C(c1cc2ccccc2oc1=O)N1CCCCCCC1
Result string: 9.4% (inactive)

* * *

Experiment: inhibition of NOD2-driven NF-kB reporter – cell-based, luminescence, uHTS, HEK293 (AID 1566)
Conditions: HEK293 NOD2/NF-kB luciferase reporter, at 4 µM, hits give high values
In all, about 290,000 compounds went through this assay and about 1,800 (0.62%) were called active. The sample holds actives, similar compounds and a random draw of the others, so the mix is not that of the screen.
List of inhibition values.
Report only the number, with the unit % understood.

Query string: Look up and report measured inhibition for this entry: COC(=O)Cc1ccc(NC(=O)c2ccc(C)c(C)c2)cc1
Result string: -48.4

Query string: Look up and report measured inhibition for this entry: CCCSc1nnc(-c2c[nH]c3ccccc23)n1CC
Result string: -33.8

Query string: Look up and report measured inhibition for this entry: COc1ccc(NC(=O)CSc2ncnc3c2sc2ccccc23)c(OC)c1
Result string: -3.6

Query string: Look up and report measured inhibition for this entry: COc1ccc(-c2nc3ccccc3s2)cc1
Result string: -217

* * *

Test: inhibition of NOD2-driven NF-kB reporter – cell-based, luminescence, uHTS, HEK293 (AID 1566)
Settings: HEK293 NOD2/NF-kB luciferase reporter, at 4 µM
The campaign covered roughly 290,000 compounds. About 1,800 (0.62%) were called active. No stated cut-off is given here; in the data, active means inhibition above about 50%; inactive means the rest. Only a selection was taken, and actives are over-represented in it overall.
In this exercise, the only acceptable responses are class 1 = active, class 0 = inactive

compound=Fc1ccc2[nH]c3c(NCc4ccccc4)ncnc3c2c1 category_label="class 1"
compound=CCN(CC)C(=O)c1ccc2c(=O)n(Cc3ccc4c(c3)OCO4)c(=S)[nH]c2c1 category_label="class 0"
compound=O=C(c1ccc(Cn2c(=O)[nH]c3ccccc3c2=O)cc1)N1CCN(c2ccccn2)CC1 category_label="class 0"

Query string: Could you please tell me the result logged for COc1ccc(-n2c3c(cc(C#N)c2=O)C(=O)CCC3)cc1 in this assay?
Result string: class 0

Query string: Could you please tell me the result logged for CCCCCc1nc2sc3c(c2c(=O)n1NC(=O)c1ccc([N+](=O)[O-])cc1)CC(C)(C)OC3 in this assay?
Result string: class 0

Query string: Could you please tell me the result logged for COc1ccc(/C=N/n2cnc3c([nH]c4ccc(F)cc43)c2=O)cc1CN1CCCC1 in this assay?
Result string: class 0

Query string: Could you please tell me the result logged for Cc1ccc(-c2nc3n(n2)Cc2ccccc2-3)cc1 in this assay?
Result string: class 0

Query string: Could you please tell me the result logged for Cc1ccc2[nH]c3c(NCc4ccccc4)ncnc3c2c1 in this assay?
Result string: class 0

* * *

Assay: inhibition of NOD2-driven NF-kB reporter – cell-based, luminescence, uHTS, HEK293 (AID 1566)
Conditions: HEK293 NOD2/NF-kB luciferase reporter, at 4 µM, hits give high values
The whole screen tested about 290,000 compounds, of which about 1,800 (0.62%) were called active. The sample as a whole holds a higher share of actives than the screen did.
List of inhibition values.
Report only the number, with the unit % understood.

molecule=Cc1cc(C(F)(F)F)nc(CCNCc2c(C(=O)N3CCCC3)nc3ccccn23)n1 unit_abbreviation=% val=12.8

Query string: Look up and report measured inhibition for this entry: Cc1ccc(C(=O)CSc2nnc3ccccn23)c(C)c1
Result string: -52.8

Query string: Look up and report measured inhibition for this entry: CCC(C(=O)NC1CCCC1)N(C(=O)Cn1nnc(-c2ccc(C)o2)n1)c1cccc(O)c1 (stereo unspecified)
Result string: 8.2

Query string: Look up and report measured inhibition for this entry: COc1ccc(/C(N)=N/OC(=O)Cc2ccccc2[N+](=O)[O-])cc1
Result string: -2.6

Query string: Look up and report measured inhibition for this entry: COc1ccc(-c2cnn3cc(-c4cccc(Cl)c4)cnc23)cc1
Result string: -3.7

Query string: Look up and report measured inhibition for this entry: N#Cc1cc(-c2ccccc2)nc(Oc2ccccc2)n1
Result string: 10.8

Query string: Look up and report measured inhibition for this entry: COc1ccccc1NC(=O)c1sc2nc(N3CCOCC3)c3c(c2c1N)CCCC3
Result string: 50

Query string: Look up and report measured inhibition for this entry: COc1ccccc1OCc1nnc(SCC(=O)N2CCCC2)o1
Result string: 4.2

Query string: Look up and report measured inhibition for this entry: Cc1ccccc1NC(=O)c1sc2nc(N3CCOCC3)c3c(c2c1N)CCCC3
Result string: 23.1

Query string: Look up and report measured inhibition for this entry: Cc1cc(C(=O)CSc2nncn2C)c(C)n1-c1ccccc1
Result string: -52.4

Query string: Look up and report measured inhibition for this entry: COc1ccccc1OCc1nnc(SCC(=O)N2CCCCC2)o1
Result string: -9.8

* * *

Assay: inhibition of NOD2-driven NF-kB reporter – cell-based, luminescence, uHTS, HEK293 (AID 1566)
Settings: HEK293 NOD2/NF-kB luciferase reporter, at 4 µM, hits give high values
Among all 290,000 compounds or so, about 1,800 (0.62%) were called active. What follows is part of a selection rich in actives, with near analogues and random picks from the rest.
List of inhibition values.
Report only the number, with the unit % understood.

Illustrative cases are given below, each with its answer.
compound="Cc1cc(C(=O)NCC2COc3ccccc3O2)c2ccccc2n1 (stereo not drawn)" val=17.7
compound=COC(=O)c1c(NC(=O)c2ccc(OC(C)C)cc2)sc2c1CC(C)(C)NC2(C)C val=7.3
compound=N#C/C(=C(/O)COC(=O)c1ccc(C#N)cc1)c1nc2ccccc2s1 val=-9.9
compound=O=C(O)c1ccccc1C(=O)c1ccc(-c2ccccc2)cc1 val=64.3

Query string: Look up and report measured inhibition for this entry: N#C/C(=C(/O)COC(=O)c1ccccc1O)c1nc2ccccc2s1
Result string: 52.7

Query string: Look up and report measured inhibition for this entry: CC(C)CNC(=S)N1CCN(c2nc(-c3ccc(Cl)cc3)cs2)CC1
Result string: 54.9

* * *

Assay: inhibition of NOD2-driven NF-kB reporter – cell-based, luminescence, uHTS, HEK293 (AID 1566)
Details: HEK293 NOD2/NF-kB luciferase reporter, at 4 µM, hits give high values
Hit rate of the full screen: of about 290,000 compounds, about 1,800 (0.62%) were called active. The entries come from a sample that favours actives as a whole.
List of inhibition values.
Report only the number, with the unit % understood.

compound=COC(=O)Cc1[nH]n(-c2nc3ccccc3s2)c(=O)c1C(C)=O assay_metric=inhibition unit_abbreviation=% val=-18.8
compound=CCn1cc(CNC(=O)c2ccc3nc(Cc4ccccc4F)oc3c2)cn1 assay_metric=inhibition unit_abbreviation=% val=24.7

Query string: Look up and report measured inhibition for this entry: Cc1noc(C)c1COC(=O)COc1cccc2c1OC(C)(C)C2
Result string: 6.1

Query string: Look up and report measured inhibition for this entry: O=C(CSc1nc2ccccc2[nH]1)NCc1ccccc1
Result string: -35

Query string: Look up and report measured inhibition for this entry: O=C(CSc1ccc(-c2ccc(Cl)cc2)nn1)N1CCCc2ccccc21
Result string: -10.9

Query string: Look up and report measured inhibition for this entry: O=C(CNc1ccccc1)N/N=C/c1c(O)ccc2ccccc12
Result string: 19.3

Query string: Look up and report measured inhibition for this entry: COc1ccc(N(CC(=O)N/N=C/c2ccc3c(c2)OCO3)S(=O)(=O)c2ccc(NC(C)=O)cc2)cc1
Result string: -7.5

Query string: Look up and report measured inhibition for this entry: COc1ccc(/C=N/n2c(C)nc3ccccc3c2=O)cc1
Result string: -11.4

Query string: Look up and report measured inhibition for this entry: Cc1ccccc1NC(=O)C(C)Sc1nnc(-c2ccncc2)n1CC1CCCO1 (centres undefined)
Result string: -16.6

Query string: Look up and report measured inhibition for this entry: O=c1c2ccccc2c(C=Nc2ccc(S(=O)(=O)N3CCCCC3)cc2)c(O)n1-c1ccc(Cl)cn1
Result string: -6.9

Query string: Look up and report measured inhibition for this entry: Cn1c(N/N=C/c2cc3ccccc3nc2Cl)nc2ccccc21
Result string: -51

Query string: Look up and report measured inhibition for this entry: CCn1c(SCC(=O)Nc2nc(-c3ccccc3)cs2)nnc1-c1ccccc1O
Result string: 11.1

Query string: Look up and report measured inhibition for this entry: CCn1c(SCC(=O)Nc2nc(-c3ccc(C)cc3)cs2)nnc1-c1ccccc1
Result string: 29

Origin of the recorded values: PubChem BioAssay AID1566
